Target: Delta-type opioid receptor (Rattus norvegicus, UniProt P33533)
Sequence (P33533 whole entry): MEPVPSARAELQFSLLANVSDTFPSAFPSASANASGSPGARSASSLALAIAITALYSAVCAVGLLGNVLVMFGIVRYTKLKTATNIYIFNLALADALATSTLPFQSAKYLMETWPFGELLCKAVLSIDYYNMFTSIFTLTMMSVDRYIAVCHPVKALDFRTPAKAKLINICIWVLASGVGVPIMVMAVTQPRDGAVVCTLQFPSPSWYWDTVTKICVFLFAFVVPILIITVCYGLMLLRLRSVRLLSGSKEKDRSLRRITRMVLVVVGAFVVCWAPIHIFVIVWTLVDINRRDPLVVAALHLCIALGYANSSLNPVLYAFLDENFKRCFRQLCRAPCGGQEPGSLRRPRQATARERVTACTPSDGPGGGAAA
Assay: Displacement of [3H]Deltorphin from DOR in Sprague-Dawley rat brain membrane after 180 mins by scintillation counting analysis
MEASURED_QUANTITY: Ki (nM)
Numeric answer only, unit nM assumed.

Form field: reported Ki of `C[C@@H](NC(=O)C[C@@H](N)Cc1ccc(O)cc1)C(=O)NCC(=O)N[C@@H](Cc1ccccc1)C(=O)N[C@H](CC(=O)N[C@H](C)C(=O)NCC(=O)N[C@@H](Cc1ccccc1)C(N)=O)Cc1ccc(O)cc1`
480
